# METHOD_SUMMARY: Cmax in rat at 10 mg/kg, ip measured after 24 hrs by LC-MS/MS analysis
# Format: ADME, organism-based
# ASSAY_CONDITIONS: in vivo
METRIC: Cmax

1) CC1(C)CC[C@]2(C(=O)OCCCCOC(=O)c3ccc(O)cc3)CC[C@]3(C)[C@H](C(=O)C=C4[C@@]5(C)C=C(C#N)C(=O)C(C)(C)[C@@H]5CC[C@]43C)[C@@H]2C1    881 ng/mL

* * *

# METHOD_SUMMARY: Cytotoxicity against human L02 cells assessed as inhibition of cell proliferation incubated for 48 hrs by MTT assay
# Type: toxicity, cell-based
Reported IC50 at 48 h is given for each of the following compounds.
METRIC: IC50 at 48 h (µM)

1) CC1(C)CC[C@]2(C(=O)OCCOC(=O)c3ccc(OCc4ccc(B5OC(C)(C)C(C)(C)O5)cc4)cc3)CC[C@]3(C)[C@H](C(=O)C=C4[C@@]5(C)C=C(C#N)C(=O)C(C)(C)[C@@H]5CC[C@]43C)[C@@H]2C1    5
2) CC1(C)CC[C@]2(C(=O)OCCc3ccc(OCc4ccc(B5OC(C)(C)C(C)(C)O5)cc4)cc3)CC[C@]3(C)[C@H](C(=O)C=C4[C@@]5(C)C=C(C#N)C(=O)C(C)(C)[C@@H]5CC[C@]43C)[C@@H]2C1    2.1
3) CC1(C)CC[C@]2(C(=O)OCCCOC(=O)c3ccc(OCc4ccc(B5OC(C)(C)C(C)(C)O5)cc4)cc3)CC[C@]3(C)[C@H](C(=O)C=C4[C@@]5(C)C=C(C#N)C(=O)C(C)(C)[C@@H]5CC[C@]43C)[C@@H]2C1    3.6
4) CC1(C)CC[C@]2(C(=O)OCCCCCCOC(=O)c3ccc(OCc4ccc(B5OC(C)(C)C(C)(C)O5)cc4)cc3)CC[C@]3(C)[C@H](C(=O)C=C4[C@@]5(C)C=C(C#N)C(=O)C(C)(C)[C@@H]5CC[C@]43C)[C@@H]2C1    6.4
5) CC1(C)CC[C@]2(C(=O)OCCCCCOC(=O)c3ccc(OCc4ccc(B5OC(C)(C)C(C)(C)O5)cc4)cc3)CC[C@]3(C)[C@H](C(=O)C=C4[C@@]5(C)C=C(C#N)C(=O)C(C)(C)[C@@H]5CC[C@]43C)[C@@H]2C1    3.5
6) CC1(C)CC[C@]2(C(=O)OCCCOc3ccc(NC(=O)OCc4ccc(B5OC(C)(C)C(C)(C)O5)cc4)cc3)CC[C@]3(C)[C@H](C(=O)C=C4[C@@]5(C)C=C(C#N)C(=O)C(C)(C)[C@@H]5CC[C@]43C)[C@@H]2C1    3.5
7) COc1cc(/C=C/CC(=O)OCCCOC(=O)[C@]23CCC(C)(C)C[C@H]2[C@H]2C(=O)C=C4[C@@]5(C)C=C(C#N)C(=O)C(C)(C)[C@@H]5CC[C@@]4(C)[C@]2(C)CC3)ccc1OCc1ccc(B2OC(C)(C)C(C)(C)O2)cc1    5.6
